Target: L2 (DV1-GV2), soluble leucine zipper γδ TCR heterodimer of a delta variable 1 chain and a gamma variable 2 … (human)
Sequence (chain, as listed by the source mutant, chain 1 of 2): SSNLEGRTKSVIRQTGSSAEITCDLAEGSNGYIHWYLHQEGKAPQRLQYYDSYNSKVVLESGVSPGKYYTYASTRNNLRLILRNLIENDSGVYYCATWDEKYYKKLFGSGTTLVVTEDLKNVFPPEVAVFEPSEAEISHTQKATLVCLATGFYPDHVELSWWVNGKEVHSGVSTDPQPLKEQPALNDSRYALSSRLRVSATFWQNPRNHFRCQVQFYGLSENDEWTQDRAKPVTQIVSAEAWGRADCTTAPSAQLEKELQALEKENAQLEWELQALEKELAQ
Sequence (chain, as listed by the source mutant, chain 2 of 2): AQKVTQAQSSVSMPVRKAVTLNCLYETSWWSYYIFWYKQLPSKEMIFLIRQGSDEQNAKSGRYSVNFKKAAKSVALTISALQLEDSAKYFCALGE
Assay: DELFIA ELISA, coated antigen;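 also: binding of antibody supernatants or protein-A purified antibodies to plate-coated antigen (3 µg/ml recombinant TCR or BSA), 1 h incubation at room temperature, DELFIA readout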
Listing of recorded DELFIA ELISA response (FU) by entry.
Output should be the measured figure followed by the unit it is expressed in.

{"binder": "G4_28 (antibody, human IgG1, V domains shown, also called clone G4_28) VH: QVQLVESGGGLVQPGGSLRLSCAASGFTFDDYAMHWVRQAPGKGLEWVSGISAGGGSTNYAGSVKGRFTVSRDTSKNTLYLQMNSLRAEDTAVYYCVKSYVDTAMRYYYYYMDVWGQGTMVTVSS VL: SSYELTQDPAVSVALGQTVTITCQGDSLRNYYASWYRQKPGQTPVLVVYGKNNRPSGIPDRFSVSASGNTASLTITGAQAEDEGDYYCNSRDSSGVVFGGGTKVTVLG", "result": "576 FU"}
{"binder": "G4_27 (antibody, human IgG1, V domains shown, also called 1248_P02_C10; clone G4_27) VH: QVQLVQSGAEVKKPGESLKISCKSSGYSFTSYWIGWVRQMPGKGLEWMGIIYPGDSDTRYSPSFQGQVTFSADESISTAYLQWSSLKASDTAMYYCARHGAYGDYPDTFDIWGQGTLVTVSS VL: SSYELTQDPAVSVALGQTVSITCQGDSLRNFYANWYQQKPGQAPVLVIYGKNNRPSGIPDRFSGSSSGNTASLTITGAQAEDEADYYCNSRDSSGNHLVFGGGTQLTVLG", "result": "579 FU"}
{"binder": "G4_20 (antibody, human IgG1, V domains shown, also called 1254_P02_G02; clone G4_20) VH: QVQLVESGAEVKKPGASVKVSCKASGGTFSSYAISWVRQAPGQGLEWMGGIIPIFGTANYAQKFQGRVTITVDKSTRTAYMELSSLRSKDTAVYYCARGNSRSDAFDIWGQGTMVTVSS VL: SSYELTHPPSVSVSPGQTASITCSGDKLGDKFVSWYHQKPGQSPVLVIYQDSKRPSGIPERFSGSNSGNTATLTISGTRAMDEADYYCQAWDSSTVVFGGGTKLTVLG", "result": "147 FU"}
{"binder": "G4_14 (antibody, human IgG1, V domains shown, also called clone G4_14) VH: EVQLVQSGAEVKKPGESLRISCKGSGYSFTSYWISWVRQMPGKGLEWMGRIDPSDSYTNYSPSFPGHVTISADKSISTAYLQWSSLKASDTAMYYCAADTAHGMDVWGRGTLVTVSS VL: SNFMLTQPHSVSESPGKTVTISCTRSRGSIAGNYVHWYQQRPGRAPTTVIYRDKERPSGVPDRISGSIDSSSNSASLTISGLKTEDEADYYCQSYDSSTHVVFGGGTKLTVLG", "result": "199 FU"}

// switching to the query binder
Prompt line: For G4_12 (antibody, human IgG1, V domains shown, also called 1140_P01_G08; clone G4_12) VH: EVQLLESGGGLVQPGGSLRLSCAASGFTVSSNYMSWVRQAPGKGLEWVSVIYSGGSTYYADSVKGRFTISRHNSKNTLYLQMNSLRAEDTAVYYCARVANGDFLDYWGRGTLVTVSS VL: SQSVLTQPASVSGSPGQSITISCTGTSSDVGGYNFVSWYQQHPGKAPKLMIYEVTNRPSGVPDRFSGSKSGNTASLTISGLQAEDEADYYCSSHASPRVFGTGTKVTVLG , write its DELFIA ELISA response (FU).
Response line: 229 FU
